Reference for the values: patent US7601716B2

Kindly supply the reported pIC50 values for the records listed here.
TESTED_ON: c-Met (cytoplasmic domain) (Homo sapiens, UniProt P08581)
Construct: Reactions were initiated with 30 ng/mL c-Met (cytoplasmic domain, Invitrogen Corporation #PV3143); purchased Invitrogen Corporation PV3143
Sequence (P08581 956-1390 limits assumed): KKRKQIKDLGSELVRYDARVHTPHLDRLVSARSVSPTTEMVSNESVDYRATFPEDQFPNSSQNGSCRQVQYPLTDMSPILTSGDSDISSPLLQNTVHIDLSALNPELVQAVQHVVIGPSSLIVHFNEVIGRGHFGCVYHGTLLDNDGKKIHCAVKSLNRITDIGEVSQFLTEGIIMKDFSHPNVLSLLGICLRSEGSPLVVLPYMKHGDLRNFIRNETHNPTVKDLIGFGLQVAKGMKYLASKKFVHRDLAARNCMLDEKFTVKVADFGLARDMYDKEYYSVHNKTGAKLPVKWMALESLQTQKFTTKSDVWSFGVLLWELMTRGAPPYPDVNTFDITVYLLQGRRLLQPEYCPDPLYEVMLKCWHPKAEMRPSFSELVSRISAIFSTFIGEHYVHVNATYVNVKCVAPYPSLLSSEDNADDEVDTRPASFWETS
ASSAY_SUMMARY: c-Met Kinase Assay (ELISA/TRF, PLC-γ substrate)
Format: biochemical
DETAILS: 3 μM ATP (Km level); read-out: c-Met Kinase Inhibition (IC50)
pIC50: −log10 of the molar value. Structures can show the parent of a compound that is named as a salt.

Problem: Entry NCC#Cc1cnc2c(c1)N(Cc1c(Cl)cccc1Cl)CCN2 [Example 171, trifluoroacetic acid salt] has what pIC50?
Result: < 4.00

Problem: Now this one: Fc1ccc(F)c(CN2CCNc3ncc(-c4ccnc(N5CCCC5)c4)cc32)c1Cl [Example 183]
Result: 5.00 to 6.00

Problem: Now this one: CN1CCN(C(=O)c2ccc(-c3cnc4c(c3)N(Cc3cc(F)ccc3F)CC(C)(C)N4)cc2)CC1 [Example 97]
Result: < 4.00

Problem: Now this one: O=C(O)c1ccc(-c2cnc3c(c2)N(Cc2c(Cl)cccc2Cl)C(=O)CN3)cc1 [Example 140]
Result: 5.00 to 6.00

Problem: Now this one: COc1ccccc1N1CCN(C(=O)c2cnc3c(c2)N(Cc2cc(Cl)ccc2Cl)CCN3)CC1 [Example 210]
Result: 4.00 to 5.00

Problem: Now this one: Fc1ccc(F)c(CN2CCNc3ncc(-c4ccc(N5CCOCC5)nc4)cc32)c1Cl [Example 105]
Result: 5.00 to 6.00

Problem: Now this one: COC(=O)C(C)(C)Nc1ncc(I)cc1[N+](=O)[O-] [Example 90]
Result: < 4.00

Problem: Now this one: Ic1cnc2c(c1)NCCN2 [Example 40]
Result: < 4.00

Problem: Now this one: O=C(c1ccc(-c2cnc3ncc(=O)n(Cc4ccccc4)c3c2)cc1)N1CCC(N2CCCC2)CC1 [Example 17, trifluoroacetic acid salt]
Result: 4.00 to 5.00

Problem: Now this one: CC(C)(C)OC(=O)NCC#Cc1cnc2c(c1)N(Cc1cc(Cl)ccc1Cl)CCN2 [Example 168]
Result: 4.00 to 5.00

Problem: Now this one: COc1ccc(CNC(=O)c2cnc3c(c2)N(Cc2cc(Cl)ccc2Cl)CCN3)cc1 [Example 258]
Result: < 4.00

Problem: Now this one: O=C(O)c1cnc2c(c1)N(Cc1cc(F)ccc1F)CCN2 [Example 78]
Result: < 4.00

Problem: Now this one: O=C(c1cnc2c(c1)N(Cc1cc(Cl)ccc1Cl)CCN2)N1CCC(c2ccccc2)CC1 [Example 212]
Result: 5.00 to 6.00

Problem: Now this one: Nc1ccc(-c2cnc3c(c2)N(Cc2c(F)ccc(F)c2Cl)CCN3)cn1 [Example 184]
Result: 5.00 to 6.00

Problem: Now this one: CN1CCN(C(=O)c2ccc(-c3cnc4c(c3)N(Cc3c(F)ccc(F)c3Cl)CCN4)cc2)CC1 [Example 104]
Result: 6.00 to 7.00

Problem: Now this one: FC(F)(F)c1ccc(Cl)cc1CN1CCNc2ncc(-c3ccnc(N4CCNCC4)c3)cc21 [Example 198]
Result: 6.00 to 7.00

Problem: Now this one: O=C1CNc2ncc(I)cc2N1Cc1cc(F)ccc1C(F)(F)F [Example 133]
Result: < 4.00

----------
Kindly supply the reported melting point values for the records listed here.
Report as a plain number; the unit °C is understood.

Problem: Entry CCOC(=O)c1ccc(-c2cnc3c(c2)N(Cc2c(Cl)cccc2Cl)C(=O)CN3)cc1 [Example 139] has what melting point?
Result: 226

Problem: Now this one: CCOC(=O)c1ccc(-c2cnc3c(c2)N(Cc2cc(Cl)ccc2C(F)(F)F)CCN3)cc1 [Example 193]
Result: 154

Problem: Now this one: CC(=O)N1CCN(c2cc(-c3cnc4c(c3)N(Cc3cc(Cl)ccc3C(F)(F)F)CCN4)ccn2)CC1 [Example 199]
Result: 241

----------
Kindly supply the reported IC50 values for the records listed here.
TESTED_ON: c-Met (cytoplasmic domain) (Homo sapiens)

Problem: Entry O=C(c1ccc(-c2cnc3c(c2)N(Cc2cc(F)ccc2F)CCN3)cc1)N1CCC[C@H]1CN1CCCC1 [Example 65] has what IC50?
Result: 1 to 10 µM

Problem: Now this one: CN1CCN(C(=O)c2ccc(-c3cnc4c(c3)N(Cc3c(F)ccc(F)c3Cl)C(=O)CN4)cc2)CC1 [Example 7]
Result: 10 to 100 µM

Problem: Now this one: O=C1CCNc2nc(Br)ccc21 [Example 266]
Result: > 100 µM

Problem: Now this one: NS(=O)(=O)c1ccc(CNC(=O)c2cnc3c(c2)N(Cc2cc(Cl)ccc2Cl)CCN3)cc1 [Example 263]
Result: > 100 µM

Problem: Now this one: N#Cc1ccc(-c2cnc3c(c2)N(Cc2ccccc2)C(=O)CN3)cn1 [Example 28]
Result: > 100 µM

----------
Kindly supply the reported melting point values for the records listed here.

Problem: Entry O=C1CNc2ncc(I)cc2N1Cc1cccc(F)c1C(F)(F)F has what melting point?
Result: > 200 °C

Problem: Now this one: CN1CCN(c2ccc(-c3cnc4c(c3)C(O)CCN4)cn2)CC1 (stereo not drawn)
Result: 124 to 128 °C

Problem: Now this one: CN1CCN(C(=O)c2ccc(-c3cnc4c(c3)N(Cc3cc(F)ccc3F)CC(C)(C)N4)cc2)CC1
Result: 191 to 192 °C

Problem: Now this one: CN1CCN(C(=O)c2ccc(-c3cnc4c(c3)N(C(=O)c3cc(F)ccc3F)CCN4)cc2)CC1
Result: 201 to 203 °C

Problem: Now this one: O=C1CNc2ncc(I)cc2N1Cc1cc(Cl)ccc1Cl
Result: > 200 °C

Problem: Now this one: O=C1CNc2ncc(I)cc2N1Cc1cc(C(F)(F)F)ccc1Cl
Result: 252 to 253 °C

Problem: Now this one: CC1(C)CN(Cc2cc(F)ccc2F)c2cc(-c3ccc(C(=O)N4CCC[C@H]4CN4CCCC4)cc3)cnc2N1
Result: 74 to 77 °C

Problem: Now this one: CCOC(=O)c1ccc(-c2cnc3c(c2)N(Cc2ccccc2OC(F)(F)F)CCN3)cc1
Result: 153 °C

Problem: Now this one: O=C(O)c1ccc(-c2cnc3c(c2)N(Cc2cc(F)ccc2F)CCN3)cc1
Result: > 300 °C

Problem: Now this one: O=C(c1ccc(-c2cnc3c(c2)N(Cc2c(F)ccc(F)c2Cl)CCN3)cc1)N1CCC(N2CCCC2)CC1
Result: 93 to 95 °C

Problem: Now this one: CN(C)CCCNC(=O)c1ccc(-c2cnc3c(c2)N(C(=O)c2ccccc2)CCN3)cc1
Result: 94 °C

Problem: Now this one: Cn1cc(-c2cnc3c(c2)N(Cc2cc(Cl)ccc2C(F)(F)F)CCN3)cn1
Result: 156 °C

Problem: Now this one: Clc1cccc(OC2CCNc3ncc(-c4ccc(N5CCOCC5)cc4)cc32)c1 (stereo not drawn)
Result: 124 to 126 °C

Problem: Now this one: CCNC(=O)c1ccc(-c2cnc3c(c2)N(Cc2ccccc2)C(=O)CN3)cc1
Result: 195 °C

Problem: Now this one: O=C(c1ccc(-c2cnc3c(c2)N(Cc2cc(F)ccc2F)C(=O)CN3)cc1)N1CCC(N2CCCC2)CC1
Result: 186 °C (dec.)

Problem: Now this one: CC1(C)CN(Cc2cc(F)ccc2F)c2cc(I)cnc2N1
Result: 168 to 169 °C

Problem: Now this one: O=C1CNc2ncc(I)cc2N1
Result: 81 °C

Problem: Now this one: O=C1CNc2ncc(I)cc2N1Cc1c(F)ccc(F)c1Cl
Result: 237 °C

----------
VALUE_TYPE: melting point

Problem: Entry O=C(O)c1ccc(-c2cnc3c(c2)N(Cc2c(F)ccc(F)c2Cl)C(=O)CN3)cc1 has what melting point?
Result: > 300 °C

Problem: Now this one: CN1CCN(c2ncc(-c3cnc4c(c3)N(Cc3c(F)ccc(F)c3Cl)CCN4)cn2)CC1
Result: 194 to 195 °C

Problem: Now this one: Fc1cc(F)c(CN2CCNc3ncc(I)cc32)cc1F
Result: 154 to 156 °C

Problem: Now this one: O=C(c1ccc(-c2cnc3c(c2)N(Cc2cc(Cl)ccc2C(F)(F)F)CCN3)cc1)N1CCN(c2nccs2)CC1
Result: 243 to 244 °C

Problem: Now this one: CC(C)CCn1cc(-c2cnc3c(c2)N(Cc2c(F)ccc(F)c2Cl)CCN3)cn1
Result: 134 °C

Problem: Now this one: Ic1cnc2c(c1)N(Cc1ccccc1)CCN2
Result: 147 to 148 °C

Problem: Now this one: CCOC(=O)c1cnc2c(c1)N(Cc1cc(F)ccc1F)CCN2
Result: 124 to 125 °C

Problem: Now this one: CCOC(=O)c1ccc(-c2cnc3c(c2)N(Cc2ccccc2)CCN3)cc1
Result: 178 to 179 °C

Problem: Now this one: FC(F)(F)c1ccc(Cl)cc1CN1CCNc2ncc(I)cc21
Result: 189 to 191 °C
